Source of measurements: patent US20260193264A1

SUBJECT_OF_TEST: HiBit-BRG1 fusion protein in stable HeLa cell line expressing HiBit-BRG1 and LgBit (Homo sapiens, UniProt P51532)
Construct: expressed in transfected cells
Sequence (P51532 whole entry, the tested form may be a part): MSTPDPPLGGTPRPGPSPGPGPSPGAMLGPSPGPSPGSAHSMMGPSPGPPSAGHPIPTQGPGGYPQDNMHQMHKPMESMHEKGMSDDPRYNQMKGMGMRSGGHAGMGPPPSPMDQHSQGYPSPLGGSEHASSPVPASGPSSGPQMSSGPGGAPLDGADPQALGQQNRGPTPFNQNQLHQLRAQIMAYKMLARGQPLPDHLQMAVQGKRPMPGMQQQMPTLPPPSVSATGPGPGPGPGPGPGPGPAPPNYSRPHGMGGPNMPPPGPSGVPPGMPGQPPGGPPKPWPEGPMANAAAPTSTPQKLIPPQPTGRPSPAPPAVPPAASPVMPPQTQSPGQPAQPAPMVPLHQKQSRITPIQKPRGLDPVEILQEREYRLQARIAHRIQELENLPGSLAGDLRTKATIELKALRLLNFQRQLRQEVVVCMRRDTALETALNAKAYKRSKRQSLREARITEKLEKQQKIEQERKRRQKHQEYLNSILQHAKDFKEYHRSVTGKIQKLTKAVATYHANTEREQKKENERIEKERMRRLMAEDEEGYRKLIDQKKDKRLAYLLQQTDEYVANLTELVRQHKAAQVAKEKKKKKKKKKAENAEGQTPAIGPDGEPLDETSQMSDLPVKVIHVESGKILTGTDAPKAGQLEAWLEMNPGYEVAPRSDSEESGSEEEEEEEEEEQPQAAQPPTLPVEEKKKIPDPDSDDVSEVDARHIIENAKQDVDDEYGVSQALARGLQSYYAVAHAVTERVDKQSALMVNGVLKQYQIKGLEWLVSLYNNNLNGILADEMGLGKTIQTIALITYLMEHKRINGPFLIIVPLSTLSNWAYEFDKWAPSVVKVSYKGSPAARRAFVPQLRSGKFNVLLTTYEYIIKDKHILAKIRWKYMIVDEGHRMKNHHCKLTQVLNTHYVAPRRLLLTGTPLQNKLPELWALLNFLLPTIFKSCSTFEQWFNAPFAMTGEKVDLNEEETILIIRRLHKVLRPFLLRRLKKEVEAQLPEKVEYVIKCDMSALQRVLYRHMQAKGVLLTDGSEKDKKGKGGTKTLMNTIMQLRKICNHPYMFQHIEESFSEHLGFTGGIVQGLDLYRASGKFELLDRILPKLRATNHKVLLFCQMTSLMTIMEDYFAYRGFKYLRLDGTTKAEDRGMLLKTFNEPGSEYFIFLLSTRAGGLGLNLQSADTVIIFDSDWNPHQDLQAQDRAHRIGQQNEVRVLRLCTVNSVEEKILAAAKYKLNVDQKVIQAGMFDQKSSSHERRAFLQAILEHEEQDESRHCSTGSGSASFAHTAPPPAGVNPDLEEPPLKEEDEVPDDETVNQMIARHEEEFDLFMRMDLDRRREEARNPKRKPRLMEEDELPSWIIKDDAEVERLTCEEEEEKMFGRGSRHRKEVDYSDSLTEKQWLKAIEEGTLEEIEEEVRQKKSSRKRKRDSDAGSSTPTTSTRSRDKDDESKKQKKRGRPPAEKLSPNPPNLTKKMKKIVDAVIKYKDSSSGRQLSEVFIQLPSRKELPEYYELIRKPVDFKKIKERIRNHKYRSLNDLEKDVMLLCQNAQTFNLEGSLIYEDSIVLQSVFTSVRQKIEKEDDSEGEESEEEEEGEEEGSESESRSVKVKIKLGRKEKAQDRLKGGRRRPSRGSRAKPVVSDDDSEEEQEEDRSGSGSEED
TEST_NAME: HiBiT-BRG1 cell-based degradation assay (Nano-Glo HiBiT, 24 h)
ASSAY_SETUP: HeLa HiBit-BRG1/LgBit cells, top dose 30 μM, read-out: BRG1 HiBit Degradation Maximum (%)
OBSERVATION_TYPE: Dmax

q: Which Dmax value belongs to Cc1ncsc1-c1ccc([C@H](C)NC(=O)[C@@H]2C[C@@H](O)CN2C(=O)[C@@H](c2cc(N3CCC4(CC3)CCN(c3ccc5cc(-c6ccccc6O)nnc5c3)C4=O)no2)C(C)C)cc1 [Compound 104] ?
a: < 50%

q: Same question for Cc1ncsc1-c1ccc([C@H](C)NC(=O)[C@@H]2C[C@@H](O)CN2C(=O)[C@@H](c2cc(N3CC4(CCN(c5ccc6cc(-c7ccccc7O)nnc6c5)CC4)C3)no2)C(C)C)cc1 [Compound 95] please.
a: > 75%

q: Same question for Cc1ncsc1-c1ccc([C@H](C)NC(=O)[C@@H]2C[C@@H](O)CN2C(=O)[C@@H](c2cc(N3CC4(C3)CN(c3cc5nnc(-c6ccccc6O)cc5cc3F)C4)no2)C(C)C)cc1 [Compound 179] please.
a: < 50%

q: Same question for CC(C)[C@@H](C(=O)N1C[C@H](O)C[C@H]1C(=O)N[C@@H](C)c1ccc(F)cc1)c1cc(N2CC3(C2)CN(c2cc4nnc(-c5ccccc5O)cc4cc2C#N)C3)no1 [Compound 217] please.
a: < 50%

q: Same question for Cc1ncsc1-c1ccc([C@H](C)NC(=O)[C@@H]2C[C@@H](O)CN2C(=O)C(C(C)C)n2cc(N3CCC(C4CN(c5ccc6nnc(-c7ccccc7O)cc6c5)C4)C3)nn2)cc1 (stereo partly shown) [Compound 269] please.
a: > 75%

q: Same question for Cc1ncsc1-c1ccc([C@H](C)NC(=O)[C@@H]2C[C@@H](O)CN2C(=O)[C@@H](c2cc(N3CC4(C3)CN(c3cc5cc(-c6ccccc6O)nnc5cc3C3CC3)C4)no2)C(C)C)cc1 [Compound 152] please.
a: > 75%

q: Same question for Cc1ncsc1-c1ccc(CNC(=O)[C@@H]2C[C@@H](O)CN2C(=O)C(c2cc(N3CC4(CN(c5ccc6cc(-c7ccccc7O)nnc6c5)C4)C3)no2)C(C)C)cc1 (stereo partly shown) [Compound 117] please.
a: < 50%

q: Same question for Cc1ncsc1-c1ccc(C(C)NC(=O)C2CC(O)CN2C(=O)[C@@H](c2cc(N3CCN([C@@H]4CCN(Cc5cc6nnc(-c7ccccc7O)cc6cc5Cl)CC4(F)F)CC3)no2)C(C)C)cc1 (stereo in doubt) [Compound 215] please.
a: < 50%

q: Same question for Cc1ncsc1-c1ccc([C@H](C)NC(=O)[C@@H]2C[C@@H](O)CN2C(=O)[C@@H](c2cc(N3CCN([C@@H]4CCN(c5ccc6nnc(-c7ccccc7O)cc6c5)CC4(F)F)CC3)no2)C(C)C)cc1 [Compound 124] please.
a: > 75%

q: Same question for Cc1ncsc1-c1ccc([C@H](C)NC(=O)[C@@H]2C[C@@H](O)CN2C(=O)C(C(C)C)n2cc(N3CC4CCN(c5ccc6cc(-c7ccccc7O)nnc6c5)CC43)nn2)cc1 (stereo partly shown) [Compound 249] please.
a: > 75%

###

Would you mind telling me the reported DC50 of each entry?
SUBJECT_OF_TEST: HiBit-BRG1 fusion protein in stable HeLa cell line expressing HiBit-BRG1 and LgBit (Homo sapiens, UniProt P51532)
Construct: expressed in transfected cells
TEST_NAME: HiBiT-BRG1 cell-based degradation assay (Nano-Glo HiBiT, 24 h)
ASSAY_SETUP: HeLa HiBit-BRG1/LgBit cells, read-out: BRMG1 HiBit Degradation IC50

q: Which DC50 value belongs to Cc1ncsc1-c1ccc([C@H](C)NC(=O)[C@@H]2C[C@@H](O)CN2C(=O)[C@@H](c2cc(N3CCC(N4CC5(CN(Cc6ccc7nnc(-c8ccccc8O)cc7c6)C5)C4)CC3)no2)C(C)C)cc1 [Compound 256] ?
a: > 10 nM

q: Same question for Cc1ncsc1-c1ccc([C@H](C)NC(=O)[C@@H]2C[C@@H](O)CN2C(=O)[C@@H](c2cc(N3CCN(c4ccc5nnc(-c6ccccc6O)cc5c4)CC3)no2)C(C)C)cc1 [Compound 57] please.
a: > 10 nM

q: Same question for CC(C)[C@@H](C(=O)N1C[C@H](O)C[C@H]1C(=O)N[C@@H](C)c1ccc(F)cc1)n1cc(N2CC3(CN(c4ccc5cc(-c6ccccc6O)nnc5c4)C3)C2)nn1 [Compound 201] please.
a: > 10 nM

q: Same question for COc1cc2nnc(-c3ccccc3O)cc2cc1N1CC2(CN(c3cc([C@H](C(=O)N4C[C@H](O)C[C@H]4C(=O)N[C@@H](C)c4ccc(-c5scnc5C)cc4)C(C)C)on3)C2)C1 [Compound 158] please.
a: < 10 nM

q: Same question for CC(C)[C@@H](C(=O)N1C[C@H](O)C[C@H]1C(=O)N[C@@H](C)c1ccc(F)cc1)c1cc(N2CC3(CC(c4cc5nnc(-c6ccccc6O)cc5cc4C#N)C3)C2)no1 [Compound 227] please.
a: > 100 nM

###

SUBJECT_OF_TEST: HiBit-BRG1 fusion protein in stable HeLa cell line expressing HiBit-BRG1 and LgBit (Homo sapiens)
Construct: expressed in transfected cells
TEST_NAME: HiBiT-BRG1 cell-based degradation assay (Nano-Glo HiBiT, 24 h)
ASSAY_SETUP: HeLa HiBit-BRG1/LgBit cells, read-out: BRMG1 HiBit Degradation IC50
Would you mind telling me the reported DC50 of each entry?

q: Which DC50 value belongs to Cc1ncsc1-c1ccc([C@H](C)NC(=O)[C@@H]2C[C@@H](O)CN2C(=O)C(F)(c2cc(N3CC4(CN(c5ccc6cc(-c7ccccc7O)nnc6c5)C4)C3)no2)C(C)C)cc1 (stereo in doubt) ?
a: > 10 nM

q: Same question for Cc1ncsc1-c1ccc([C@H](C)NC(=O)[C@@H]2C[C@@H](O)CN2C(=O)[C@@H](c2cc(N3CCC4(CC3)CN(c3ccc5nnc(-c6ccccc6O)cc5c3)CCN4C)no2)C(C)C)cc1 please.
a: < 10 nM

q: Same question for Cc1ncsc1-c1ccc([C@H](C)NC(=O)[C@@H]2C[C@@H](O)CN2C(=O)[C@@H](c2cc(N3C[C@]4(C)CN(c5ccc6nnc(-c7ccccc7O)cc6c5)C[C@]4(C)C3)no2)C(C)C)cc1 please.
a: > 10 nM

q: Same question for Cc1ncsc1-c1ccc([C@H](C)NC(=O)[C@@H]2C[C@@H](O)CN2C(=O)C(C(C)C)n2cc(N3CCC34CN(c3ccc5nnc(-c6ccccc6O)cc5c3)C4)nn2)cc1 (some centres unmarked) please.
a: > 10 nM

q: Same question for Cc1ncsc1-c1ccc([C@H](C)NC(=O)[C@@H]2C[C@@H](O)CN2C(=O)[C@@H](c2cc(C3CC4(C3)CN(c3ccc5cc(-c6ccccc6O)nnc5c3)C4)no2)C(C)C)cc1 please.
a: > 10 nM

###

Would you mind telling me the reported DC50 of each entry?
SUBJECT_OF_TEST: HiBiT-BRM fusion protein in stable HeLa cell line (Homo sapiens, UniProt P51531)
Construct: expressed in transfected cells
Sequence (P51531 whole entry, the tested form may be a part): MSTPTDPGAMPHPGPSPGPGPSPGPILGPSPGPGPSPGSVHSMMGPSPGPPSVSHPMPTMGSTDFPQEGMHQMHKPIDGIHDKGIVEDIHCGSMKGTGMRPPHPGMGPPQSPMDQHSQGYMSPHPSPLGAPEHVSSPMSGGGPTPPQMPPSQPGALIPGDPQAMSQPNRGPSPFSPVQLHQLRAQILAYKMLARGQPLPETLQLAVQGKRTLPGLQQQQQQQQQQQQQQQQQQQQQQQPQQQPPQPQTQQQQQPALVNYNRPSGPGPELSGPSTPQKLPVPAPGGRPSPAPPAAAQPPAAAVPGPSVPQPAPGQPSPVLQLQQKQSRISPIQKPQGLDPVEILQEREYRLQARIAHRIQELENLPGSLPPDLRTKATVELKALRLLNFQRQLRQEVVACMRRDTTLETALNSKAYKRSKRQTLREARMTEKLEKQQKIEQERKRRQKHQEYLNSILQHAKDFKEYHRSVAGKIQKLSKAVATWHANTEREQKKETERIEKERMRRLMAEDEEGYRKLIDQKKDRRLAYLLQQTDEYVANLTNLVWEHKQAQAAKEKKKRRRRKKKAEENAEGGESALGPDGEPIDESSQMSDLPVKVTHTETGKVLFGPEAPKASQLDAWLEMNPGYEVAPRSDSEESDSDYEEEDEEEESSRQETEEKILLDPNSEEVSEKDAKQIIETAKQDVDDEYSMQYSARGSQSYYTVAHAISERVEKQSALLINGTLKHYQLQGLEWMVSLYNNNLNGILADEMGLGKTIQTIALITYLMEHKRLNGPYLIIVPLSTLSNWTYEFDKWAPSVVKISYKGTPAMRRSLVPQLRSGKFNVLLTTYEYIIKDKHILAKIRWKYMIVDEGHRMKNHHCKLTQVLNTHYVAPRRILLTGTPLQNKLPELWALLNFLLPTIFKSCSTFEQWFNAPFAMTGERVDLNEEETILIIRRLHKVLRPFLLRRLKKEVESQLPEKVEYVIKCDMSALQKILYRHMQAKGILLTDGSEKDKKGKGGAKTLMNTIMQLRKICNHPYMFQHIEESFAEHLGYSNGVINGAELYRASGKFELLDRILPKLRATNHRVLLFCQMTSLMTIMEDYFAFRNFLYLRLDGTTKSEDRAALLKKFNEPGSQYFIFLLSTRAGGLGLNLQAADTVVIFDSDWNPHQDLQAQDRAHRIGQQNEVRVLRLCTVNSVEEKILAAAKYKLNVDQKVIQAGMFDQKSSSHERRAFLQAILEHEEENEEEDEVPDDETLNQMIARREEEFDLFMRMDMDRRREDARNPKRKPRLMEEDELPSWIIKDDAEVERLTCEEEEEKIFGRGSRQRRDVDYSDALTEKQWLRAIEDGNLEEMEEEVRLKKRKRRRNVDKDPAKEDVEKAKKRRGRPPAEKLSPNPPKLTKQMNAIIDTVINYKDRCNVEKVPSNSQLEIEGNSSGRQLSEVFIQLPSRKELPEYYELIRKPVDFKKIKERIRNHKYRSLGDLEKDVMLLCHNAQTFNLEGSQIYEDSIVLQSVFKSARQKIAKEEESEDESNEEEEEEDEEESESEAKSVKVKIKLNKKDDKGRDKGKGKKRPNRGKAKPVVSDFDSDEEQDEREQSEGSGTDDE
TEST_NAME: HiBiT-BRM cell-based degradation assay (Nano-Glo HiBiT Lytic Detection, 24 h)
Parameters: scale not given here
ASSAY_SETUP: HeLa HiBiT-BRM cells, read-out: BRM HiBit Degradation IC50

q: Which DC50 value belongs to Cc1ncsc1-c1ccc([C@H](C)NC(=O)[C@@H]2C[C@@H](O)CN2C(=O)[C@@H](c2cc(N3CCN([C@@H]4CCN(Cc5ccc6nnc(-c7ccccc7O)cc6c5)CC4(F)F)CC3)no2)C(C)C)cc1 ?
a: < 10 nM

q: Same question for Cc1ncsc1-c1ccc([C@H](C)NC(=O)[C@@H]2C[C@@H](O)CN2C(=O)[C@@H](c2cc(N3CCC4(CC3)CC(c3ccc5nnc(-c6ccccc6O)cc5c3)C4)no2)C(C)C)cc1 please.
a: < 10 nM

q: Same question for COc1cc2nnc(-c3ccccc3O)cc2cc1C1CN(c2ncc(-c3cc([C@H](C(=O)N4C[C@H](O)C[C@H]4C(=O)N[C@@H](C)c4ccc(-c5scnc5C)cc4)C(C)C)on3)cn2)C1 please.
a: < 10 nM

q: Same question for Cc1ncsc1-c1ccc([C@H](C)NC(=O)[C@@H]2C[C@@H](O)CN2C(=O)C(C(C)C)n2cc(N3CC4CCN(c5ccc6cc(-c7ccccc7O)nnc6c5)CC43)nn2)cc1 (some centres unmarked) please.
a: > 10 nM

q: Same question for Cc1ncsc1-c1ccc([C@@H](C)NC(=O)[C@H]2C[C@H](O)CN2C(=O)[C@H](C(C)C)n2cc(N3CC4(CN(c5ccc6nnc(-c7ccccc7O)cc6c5)C4)C3)cn2)cc1 please.
a: > 10 nM
